Tested on: MCF-7 (breast cancer cell line)
Experiment: MTT cell growth inhibition, MCF-7
Type: cell-based
Conditions: MCF-7, 96 h incubation, MTT; inhibition at highest concentration tested (100 μM); triplicate points
Square brackets hold non-standard residues; d marks the D form. Peptide text beside a SMILES is read from it. Pra = C#CC[C@H](N)C(=O)O

# COMPOUND, UOM, E max (% inhibition)
measured = [
    ("N.N.[Cl][Pt][Cl] [Cisplatin, cisplatin, reference compound]", "% inhibition", 78),
    ("CCCCCCCCCCn1cc(C[C@@H]2NC(=O)[C@@H](Cc3c[nH]c4ccccc34)NC(=O)[C@H](CO)NC(=O)[C@@H](CS)NC(=O)[C@H](CO)NC(=O)[C@@H](CCCNC(=N)N)NC(=O)[C@H](CCC(N)=O)NC(=O)[C@@H](CCCCN)NC2=O)nn1", "% inhibition", 63),
    ("COc1cccc2c1C(=O)c1c(O)c3c(c(O)c1C2=O)C[C@@](O)(C(=O)CO)C[C@@H]3O[C@H]1C[C@H](N)[C@H](O)[C@H](C)O1", "% inhibition", 86),
    ("C#CC[C@@H]1NC(=O)[C@@H](Cc2c[nH]c3ccccc23)NC(=O)[C@H](CO)NC(=O)[C@@H](CS)NC(=O)[C@H](CO)NC(=O)[C@@H](CCCNC(=N)N)NC(=O)[C@H](CCC(N)=O)NC(=O)[C@@H](CCCCN)NC1=O [CP2] (cyclo([Pra][dK]Q[dR]S[dC]S[dW]))", "% inhibition", 48),
]
